Reference source: ChEMBL document CHEMBL1201862

- System: A549
- assay.text: NCI tumour cell line growth inhibition, 48 h
Active and inactive are the calls of the source. Rule as the data show it: active = GI50 up to about 1.1 µM and inactive = higher.
For each entry below, report its GI50 value.

Field: GI50. Fill in for each record below.
1. CC1=CC=CC(C)(C)CC1(O[Si](C)(C)C)C(F)(F)F (stereo unspecified)
2. N#C/C(=C/NC(=S)NCc1ccccc1)C(N)=O
3. O=C1CC(=O)NC(NNS(=O)(=O)c2ccccc2)=N1

**Result**
["64.3 µM (inactive)", "> 100 µM (inactive)", "> 100 µM (inactive)"]

----------
- Test system: HCT-116
- assay.text: NCI tumour cell line growth inhibition, 48 h
Activity calls are given as the source filed them. Rule as the data show it: active = GI50 up to about 1.1 µM and inactive = higher.
Pick from active, inactive when you respond.

The following molecules have reported results that may help.
[
  {
    "molecule": "CCCCCCCCCCCCCCCCNc1ccc2c(c1)OCCOCCOCCOCCO2",
    "subject.of.test": "HCT-116",
    "group": "inactive"
  },
  {
    "molecule": "CCCCCC(/C=N/Nc1ccccc1)C(O)(C(F)(F)F)C(F)(F)F (centres undefined)",
    "subject.of.test": "HCT-116",
    "group": "inactive"
  },
  {
    "molecule": "CC(C)(C)N(Cc1ccc2c(c1)OCO2)C(=O)/C=C\\[S+]([O-])c1ccccc1 (centres undefined)",
    "subject.of.test": "HCT-116",
    "group": "inactive"
  },
  {
    "molecule": "N#CC1C=Cc2ccccc2N1C(=O)Oc1ccccc1 (centres undefined)",
    "subject.of.test": "HCT-116",
    "group": "inactive"
  },
  {
    "molecule": "Cc1ccccc1NC(=S)N/N=C1\\C(=O)Nc2ccccc21",
    "subject.of.test": "HCT-116",
    "group": "inactive"
  },
  {
    "molecule": "CC(=S)NNC(=O)c1ccncc1",
    "subject.of.test": "HCT-116",
    "group": "inactive"
  },
  {
    "molecule": "CCOC(=O)COc1ccccc1/C=C1\\CCC(CN(C)C)C1=O (centres undefined)",
    "subject.of.test": "HCT-116",
    "group": "inactive"
  },
  {
    "molecule": "FC(F)(Sc1ncc[nH]1)c1nc2ccccc2o1",
    "subject.of.test": "HCT-116",
    "group": "inactive"
  },
  {
    "molecule": "OC1COC(OCc2ccccc2)C(O)C1O (centres undefined)",
    "subject.of.test": "HCT-116",
    "group": "inactive"
  },
  {
    "molecule": "Cc1cnc2nc(-c3ccc(F)cc3)cc(O)c2c1",
    "subject.of.test": "HCT-116",
    "group": "inactive"
  }
]

Shift focus to the following entry.
**Query** Please state the recorded outcome for this molecule: CC(=O)OCC1OC(n2c(-c3ccccc3)c(/N=N/c3ccccc3)c(C)c(C#N)c2=S)C(OC(C)=O)C(OC(C)=O)C1OC(C)=O (centres undefined)
**Result** inactive

----------
- System: IGROV-1
- assay.text: NCI tumour cell line growth inhibition, 48 h
Active and inactive are the calls of the source. No stated cut-off is given here; in the data, active = GI50 up to about 1.1 µM and inactive = higher.
Pick from active, inactive when you respond.

The following compounds have reported results that may help.
[
  {
    "compound": "Cc1ccccc1NC(=S)N/N=C1\\C(=O)Nc2ccccc21",
    "group": "inactive"
  },
  {
    "compound": "CCCCCC(/C=N/Nc1ccccc1)C(O)(C(F)(F)F)C(F)(F)F (centres undefined)",
    "group": "inactive"
  },
  {
    "compound": "Nn1c(=O)n(Cc2ccccc2)n(-c2ccccc2)c1=O",
    "group": "inactive"
  },
  {
    "compound": "O=C(N/C(=C\\c1ccccc1)c1nc2ccccc2c(=O)o1)c1ccccc1",
    "group": "inactive"
  }
]

**Query** Please state the recorded outcome for this compound: CC(=O)OCC1OC(N2C(=S)N[C@H]([C@@H](O)[C@H](O)[C@H](O)CO)[C@H]2O)C(OC(C)=O)C(OC(C)=O)C1OC(C)=O (some centres undefined)
**Result** inactive

**Query** Please state the recorded outcome for this compound: Cc1ccc(Oc2ccc(C)cc2[N+](=O)[O-])cc1
**Result** inactive

**Query** Please state the recorded outcome for this compound: NCc1nnn(Cc2ccccc2)c1N
**Result** inactive

**Query** Please state the recorded outcome for this compound: CCCCCCCCCCCCCCCCNc1ccc2c(c1)OCCOCCOCCOCCO2
**Result** inactive

**Query** Please state the recorded outcome for this compound: COc1cccc(-c2nc(O)c3ccccc3n2)c1
**Result** inactive

**Query** Please state the recorded outcome for this compound: Cc1ccc(/C=C2/N/C(=N\N=C/C(O)C(O)C(O)C(O)CO)NC2=O)cc1 (centres undefined)
**Result** inactive

**Query** Please state the recorded outcome for this compound: Cc1cccc(NC(=O)CC(=O)N2N=C(N(CCC#N)c3ccc(Cl)cc3)CC2c2ccccc2)c1 (centres undefined)
**Result** inactive

**Query** Please state the recorded outcome for this compound: COC(=N)c1ncn(Cc2ccccc2)c1N
**Result** inactive

**Query** Please state the recorded outcome for this compound: C[C@]12CC[C@H](O)CC1=CC[C@@H]1C2CC[C@]2(C)C(=O)NC(=O)CC12 (some centres undefined)
**Result** inactive

**Query** Please state the recorded outcome for this compound: CSC(SC)=C1C(=O)NN=C1C
**Result** inactive

**Query** Please state the recorded outcome for this compound: O=C(CSc1nc2ccc([N+](=O)[O-])cc2s1)c1ccc2ccccc2c1
**Result** inactive

**Query** Please state the recorded outcome for this compound: Nn1c(Cc2ccc(Cl)cc2)n[nH]c1=O
**Result** inactive

**Query** Please state the recorded outcome for this compound: O=C1c2cscc2C(=O)c2c(OCc3ccccc3)ccc(OCc3ccccc3)c21
**Result** inactive

**Query** Please state the recorded outcome for this compound: Nc1cc2c(c3ccccc13)C(CCl)CN2C(=O)c1cc2cc(NC(=O)c3cc4ccccc4o3)ccc2[nH]1 (centres undefined)
**Result** active

**Query** Please state the recorded outcome for this compound: O=C(N/N=C(COc1ccccc1Cl)\N=C\c1cccnc1)c1ccncc1
**Result** inactive

**Query** Please state the recorded outcome for this compound: CN(C)C(=O)O/N=C1/C(=C2/C(=O)Nc3ccccc32)Nc2ccccc21
**Result** active

**Query** Please state the recorded outcome for this compound: Cn1nc(-c2ccccc2)c(C(=O)/C=C/c2ccc(F)cc2)c(N2CCOCC2)c1=O
**Result** inactive

**Query** Please state the recorded outcome for this compound: CC1C2CC(CC(=O)N2)C1(C)C (centres undefined)
**Result** inactive
